target: human CD28 (human, UniProt P10747 19-220)
assay.method.text: cell-based or functional assay
property.label: MLR assay (EC50) (nM)
One number for each entry, in nM.

Completed entries (count: 5):
- 1h-99-1 (other) VH: EVQLLESGGGLVQPGGSLRLSCAASGFTFDSANMTWVRQAPGKGLEWVSWIEDTGTQTFYADSVRGRFTISRDNFKNTLYLQMNSLRAEDTAVYYCAKSPFGPLYGFDYRGQGTLVTVSS: 19
- 1h-99-225 (other) VH: EVQLLESGGGLVQPGGSLRLSCAASGFTFRLQNMSWVRQAPGKGLEWVSWIEDTGTQTFYADSVKGRFTISRDNSKNTLYLQMNSLRAEDTAVYYCAKSPFGPLYGFDYRGQGTLVTVSS: 28
- 1h-79 (other) VL: DIQMTQSPSSLSASVGDRVTITCRASQPIGHSLAWYQQKPGKAPKLLIYWASTLQSGVPSRFSGSGSGTDFTLTISSLQPEDFATYYCQQMLRTPFTFGQGTKVEIKR: 3200
- 1h-79-1 (other) VL: DIQMTQSPSSLSASVGDRVTITCRASQPIGHSFGWYQQKPGKAPKLLIYWASTLQSGVPTRFSGSGSGTDFTLTISSLQPEDFATYYCQQMLRTPFTFGQGTKVEIKR: 2100
- 1h-239-817 (other) VL: DIQMTQSPSSLSASVGDRVTITCRASKPIYPFLEWYQQKPGKAPKLLIYFTSRLQSGVPSRFSGSGSGTDFTLTISSLQPEDFATYYCLQNVTNPATFSQGTKVEIKR: 9

Working through the 3 binders below one at a time, give MLR assay (EC50) for each.
1. 1h-239-859 (other) VL: DIQMTQSPSSLSASVGDRVTITCRASQSIYPFLEWYQQKPGKAPKLLIYFSSMLASGVPSRFSGSGSGTDFTLTISSLQPEDFATYYCLQNVTNPATFSQGTKVEIKR
2. 1h-79-31 (other) VL: DIQMTQSPSSLSASVGDRVTITCRASQPIGHSFGWYQQKPGKAPKLLIYWASMLQSGVPSRFSGSGSGTDFTLTISSLQPEDFATYYCQQMLRTPFMFGQGTKVEIKR
3. 1h-37 (other) VH: EVQLLESGGGLVQPGGSLRLSCAASGFTFGTYKMVWVRQAPGKGLEWVSSIGPGGLDTYYADSVKGRFTISRDNSKNTLYLQMNSLRAEDTAVYYCAKSWMTLPITGFDYRGQGTLVTVSS

OUTPUT:
4
103
1900

Data provenance: patent US20130109846A1
